target: Substance-P receptor (Homo sapiens); assay: Binding affinity at human Tachykinin receptor 1 expressed in CHO cells by [125 I]Trp8-substance P displacement.
Sequence (P25103 whole entry): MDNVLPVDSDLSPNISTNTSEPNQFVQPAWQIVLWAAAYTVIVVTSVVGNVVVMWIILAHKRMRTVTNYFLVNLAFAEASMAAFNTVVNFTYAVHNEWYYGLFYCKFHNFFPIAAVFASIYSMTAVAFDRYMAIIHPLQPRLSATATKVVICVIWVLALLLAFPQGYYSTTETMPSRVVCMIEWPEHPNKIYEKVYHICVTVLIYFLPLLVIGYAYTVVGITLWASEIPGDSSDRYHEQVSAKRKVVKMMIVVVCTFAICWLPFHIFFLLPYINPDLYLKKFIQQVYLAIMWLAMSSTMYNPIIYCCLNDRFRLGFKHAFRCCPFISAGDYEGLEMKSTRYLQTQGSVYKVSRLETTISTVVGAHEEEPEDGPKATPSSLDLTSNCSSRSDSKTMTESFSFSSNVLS
pIC50: −log10 of the molar value.
MEASURED PARAMETER: pIC50

1 = O=C1NC(Cc2c[nH]c3ccccc23)CN1Cc1cc(C(F)(F)F)cc(C(F)(F)F)c1 (stereo not drawn)
2 = CNC(=O)N1C(=O)N(Cc2cc(C(F)(F)F)cc(C(F)(F)F)c2)C(=O)C1Cc1c[nH]c2ccccc12 (stereo not drawn)
3 = COc1cc(CN2C(=O)OC(Cc3c[nH]c4ccccc34)C2=O)cc(OC)c1 (stereo not drawn)
Put the items in order so that reported pIC50 rises from first to last. Form field (ranking): labels in requested order.
3, 1, 2

###

biological target: UniProtKB P25103; assay: Binding affinity at human Tachykinin receptor 1 expressed in CHO cells by [125 I]Trp8-substance P displacement.
MEASURED PARAMETER: IC50 (µM)

Please review the entries below; each comes with its answer.
O=C1C(Cc2c[nH]c3ccccc23)N(Cc2ccccc2)C(=O)N1Cc1cc(C(F)(F)F)cc(C(F)(F)F)c1 (stereo not given) | 0.31
O=C1NC(Cc2c[nH]c3ccccc23)CN(Cc2cc(C(F)(F)F)cc(C(F)(F)F)c2)C1=O (stereo not given) | 0.4
O=C1CNC(Cc2c[nH]c3ccccc23)CN1Cc1cc(C(F)(F)F)cc(C(F)(F)F)c1 (stereo not given) | 0.243

A = O=C1NC(Cc2c[nH]c3ccccc23)C(=O)N1Cc1cc(C(F)(F)F)cc(C(F)(F)F)c1 (stereo not given)
B = O=C1C(Cc2c[nH]c3ccccc23)N(C(=O)Nc2ccccc2)C(=O)N1Cc1cc(C(F)(F)F)cc(C(F)(F)F)c1 (stereo not given)
Problem: Given the entries A and B , determine which has the lower reported IC50. The response must carry the label of the picked entry.
B
(B: 0.22 µM, A: 0.317 µM)
